Provenance of the data: patent US4656166A

test system: Enterobacter RO 154; assay: MIC, in vitro dilution method, Enterobacter RO 154 (Table III); format: cell-based; details: RO154; Enterobacter RO 154; dilution method; read-out: MIC
Give measured MIC for each item. Keep answers brief.
Numeric answer only, unit µg/mL assumed.

Give the reported MIC for CC(C)(ON=C(C(=O)NC1C(=O)N2C(C(=O)O)=C(COC(=O)c3ccc(NC(=O)CCCN)cc3)C[S+]([O-])C12)c1csc(N)n1)C(=O)O (stereo not drawn) (system: Enterobacter RO 154). 4

Give the reported MIC for CC(C)(ON=C(C(=O)NC1C(=O)N2C(C(=O)O)=C(COC(=O)C3CCCNC3)C[S+]([O-])C12)c1csc(N)n1)C(=O)O (stereo not drawn) (system: Enterobacter RO 154). 2

Give the reported MIC for CCNCc1cccc(C(=O)OCC2=C(C(=O)O)N3C(=O)C(NC(=O)/C(=N\OC(C)(C)C(=O)O)c4csc(N)n4)C3[S+]([O-])C2)c1 (stereo not drawn) (system: Enterobacter RO 154). 0.25

----------
tested on: Serrtia liquefaciens SL 1326 S; assay: MIC on strain not producing beta-lactamase, Serratia liquefaciens SL 1326 S (Table IV); format: cell-based; settings: SL1326S, not producing beta-lactamases
reported-property: MIC

Any idea what its MIC is? The compound is CC(C)(O/N=C(\C(=O)NC1C(=O)N2C(C(=O)O)=C(COC(=O)CCN)C[S+]([O-])C12)c1csc(N)n1)C(=O)O (stereo not drawn) ≤ 0.12 mg/L

Any idea what its MIC is? The compound is CC(C)(O/N=C(\C(=O)NC1C(=O)N2C(C(=O)O)=C(COC(=O)CCCCCN)C[S+]([O-])C12)c1csc(N)n1)C(=O)O (stereo not drawn) ≤ 0.12 mg/L

Any idea what its MIC is? The compound is CC(C)(ON=C(C(=O)NC1C(=O)N2C(C(=O)O)=C(CSC(=O)C3CCNCC3)C[S+]([O-])C12)c1csc(N)n1)C(=O)O (stereo not drawn) ≤ 0.12 mg/L

----------
Give measured MIC for each item. Keep answers brief.
tested on: Escherichia coli SOL 90; assay: MIC, in vitro dilution method, Escherichia coli SOL 90 (Table III); format: cell-based; conditions: SOL90; Escherichia coli SOL 90; dilution method; read-out: MIC
Numeric answer only, unit µg/mL assumed.

Give the reported MIC for CNCc1cccc(C(=O)OCC2=C(C(=O)O)N3C(=O)C(NC(=O)/C(=N\OC(C)(C)C(=O)O)c4csc(N)n4)C3[S+]([O-])C2)c1 (stereo not drawn) [42 537] (system: Escherichia coli SOL 90). 0.25

Give the reported MIC for CN(C(=O)CN)c1ccc(C(=O)OCC2=C(C(=O)O)N3C(=O)C(NC(=O)C(=NOC(C)(C)C(=O)O)c4csc(N)n4)C3[S+]([O-])C2)cc1 (stereo not drawn) [42 657] (system: Escherichia coli SOL 90). 0.25

Give the reported MIC for CC(C)(ON=C(C(=O)NC1C(=O)N2C(C(=O)O)=C(COC(=O)c3csc(NC(=O)CCN)n3)C[S+]([O-])C12)c1csc(N)n1)C(=O)O (stereo not drawn) [42 587] (system: Escherichia coli SOL 90). 0.25

Give the reported MIC for CNCC(=O)Nc1cccc(C(=O)OCC2=C(C(=O)O)N3C(=O)C(NC(=O)C(=NOC(C)(C)C(=O)O)c4csc(N)n4)C3[S+]([O-])C2)c1 (stereo not drawn) [42 583] (system: Escherichia coli SOL 90). 1

Give the reported MIC for CC(C)(O/N=C(\C(=O)NC1C(=O)N2C(C(=O)O)=C(COC(=O)CC3CCCNC3)C[S+]([O-])C12)c1csc(N)n1)C(=O)O (stereo not drawn) [42 372] (system: Escherichia coli SOL 90). 0.25

Give the reported MIC for CC(C)(ON=C(C(=O)NC1C(=O)N2C(C(=O)O)=C(COC(=O)C3CCCCC3CN)C[S+]([O-])C12)c1csc(N)n1)C(=O)O (stereo not drawn) [42 321] (system: Escherichia coli SOL 90). 0.5

Give the reported MIC for Nc1nc(/C(=N/OC2(C(=O)O)CCC2)C(=O)NC2C(=O)N3C(C(=O)O)=C(COC(=O)CC4CCCNC4)C[S+]([O-])C23)cs1 (stereo not drawn) [42 472] (system: Escherichia coli SOL 90). 0.25

Give the reported MIC for CNCCCCC(=O)OCC1=C(C(=O)O)N2C(=O)C(NC(=O)/C(=N\OC(C)(C)C(=O)O)c3csc(N)n3)C2[S+]([O-])C1 (stereo not drawn) [42 029] (system: Escherichia coli SOL 90). 0.25

Give the reported MIC for CC(N)C(=O)Nc1ccc(C(=O)OCC2=C(C(=O)O)N3C(=O)C(NC(=O)C(=NOC(C)(C)C(=O)O)c4csc(N)n4)C3[S+]([O-])C2)cc1 (stereo not drawn) [42 817] (system: Escherichia coli SOL 90). 0.125

Give the reported MIC for Cc1cc(C)c(C(=O)OCC2=C(C(=O)O)N3C(=O)C(NC(=O)C(=NOC4(C(=O)O)CCC4)c4csc(N)n4)C3[S+]([O-])C2)c(C)c1CN (stereo not drawn) [42 542] (system: Escherichia coli SOL 90). 0.5

Give the reported MIC for CNCc1ccc(C(=O)SCC2=C(C(=O)O)N3C(=O)C(NC(=O)C(=NOC4(C(=O)O)CCC4)c4csc(N)n4)C3[S+]([O-])C2)cc1 (stereo not drawn) [compound 42534] (system: Escherichia coli SOL 90). 0.5

Give the reported MIC for Cc1cc(C(=O)SCC2=C(C(=O)O)N3C(=O)C(NC(=O)C(=NOC(C)(C)C(=O)O)c4csc(N)n4)C3[S+]([O-])C2)ccc1CN (stereo not drawn) [compound 42661] (system: Escherichia coli SOL 90). 0.5

Give the reported MIC for CC(C)(O/N=C(\C(=O)NC1C(=O)N2C(C(=O)O)=C(COC(=O)[C@@H](N)CCCCN)C[S+]([O-])C12)c1csc(N)n1)C(=O)O (stereo partly drawn) [41 888] (system: Escherichia coli SOL 90). 2

Give the reported MIC for Cc1cc(CN)ccc1C(=O)SCC1=C(C(=O)O)N2C(=O)C(NC(=O)C(=NOC3(C(=O)O)CCC3)c3csc(N)n3)C2[S+]([O-])C1 (stereo not drawn) [compound 42851] (system: Escherichia coli SOL 90). 0.5

Give the reported MIC for Nc1nc(/C(=N/OC2(C(=O)O)CCC2)C(=O)NC2C(=O)N3C(C(=O)O)=C(COC(=O)CC4CCCCN4)C[S+]([O-])C23)cs1 (stereo not drawn) [42 471] (system: Escherichia coli SOL 90). 0.5

Give the reported MIC for CC(C)(N)C(=O)OCC1=C(C(=O)O)N2C(=O)C(NC(=O)/C(=N\OC(C)(C)C(=O)O)c3csc(N)n3)C2[S+]([O-])C1 (stereo not drawn) [41 858] (system: Escherichia coli SOL 90). 2

Give the reported MIC for CC(C)(ON=C(C(=O)NC1C(=O)N2C(C(=O)O)=C(COC(=O)C3CCC(N)CC3)C[S+]([O-])C12)c1csc(N)n1)C(=O)O (stereo not drawn) [42 811] (system: Escherichia coli SOL 90). 0.125

Give the reported MIC for CC(C)C[C@H](N)C(=O)OCC1=C(C(=O)O)N2C(=O)C(NC(=O)/C(=N\OC(C)(C)C(=O)O)c3csc(N)n3)C2[S+]([O-])C1 (stereo partly drawn) [41 859] (system: Escherichia coli SOL 90). 1

Give the reported MIC for CC(CN)C(=O)OCC1=C(C(=O)O)N2C(=O)C(NC(=O)C(=NOC(C)(C)C(=O)O)c3csc(N)n3)C2[S+]([O-])C1 (stereo not drawn) [42 025] (system: Escherichia coli SOL 90). 0.5

Give the reported MIC for CC(C)(O/N=C(\C(=O)NC1C(=O)N2C(C(=O)O)=C(COC(=O)CCCCCN)C[S+]([O-])C12)c1csc(N)n1)C(=O)O (stereo not drawn) [41 855] (system: Escherichia coli SOL 90). 0.25

Give the reported MIC for CC(C)(O/N=C(\C(=O)NC1C(=O)N2C(C(=O)O)=C(COC(=O)c3csc(NC(=O)CN)n3)C[S+]([O-])C12)c1csc(N)n1)C(=O)O (stereo not drawn) [42 466] (system: Escherichia coli SOL 90). 0.5

Give the reported MIC for Cc1nc(NC(=O)CN)sc1C(=O)OCC1=C(C(=O)O)N2C(=O)C(NC(=O)C(=NOC(C)(C)C(=O)O)c3csc(N)n3)C2[S+]([O-])C1 (stereo not drawn) [42 690] (system: Escherichia coli SOL 90). 0.5

----------
test system: Serrtia liquefaciens SL 1326 S; experiment: MIC on strain not producing beta-lactamase, Serratia liquefaciens SL 1326 S (Table IV); assay type: cell-based; conditions: SL1326S, not producing beta-lactamases
Give measured MIC for each item. Keep answers brief.
Numeric answer only, unit µg/mL assumed.

Any idea what its MIC is? The molecule is CC(C)(ON=C(C(=O)NC1C(=O)N2C(C(=O)O)=C(CSC(=O)C3CCN(C(=O)CN)CC3)C[S+]([O-])C12)c1csc(N)n1)C(=O)O (stereo not drawn) 0.0625

Any idea what its MIC is? The molecule is CC(C)(ON=C(C(=O)NC1C(=O)N2C(C(=O)O)=C(CSC(=O)c3ccc(NC(=O)CN)cc3)C[S+]([O-])C12)c1csc(N)n1)C(=O)O (stereo not drawn) 0.0625

Any idea what its MIC is? The molecule is Cc1ccc(CN)c(C)c1C(=O)OCC1=C(C(=O)O)N2C(=O)C(NC(=O)/C(=N\OC(C)(C)C(=O)O)c3csc(N)n3)C2[S+]([O-])C1 (stereo not drawn) 0.0625

Any idea what its MIC is? The molecule is Cc1c(CN)cccc1C(=O)OCC1=C(C(=O)O)N2C(=O)C(NC(=O)/C(=N\OC(C)(C)C(=O)O)c3csc(N)n3)C2[S+]([O-])C1 (stereo not drawn) 0.0625

Any idea what its MIC is? The molecule is CC(C)(ON=C(C(=O)NC1C(=O)N2C(C(=O)O)=C(CSC(=O)c3cccc(CN)c3)C[S+]([O-])C12)c1csc(N)n1)C(=O)O (stereo not drawn) 0.0625
